target of assay: Somatostatin receptor type 3 (Homo sapiens, UniProt P32745)
Sequence (P32745 whole entry): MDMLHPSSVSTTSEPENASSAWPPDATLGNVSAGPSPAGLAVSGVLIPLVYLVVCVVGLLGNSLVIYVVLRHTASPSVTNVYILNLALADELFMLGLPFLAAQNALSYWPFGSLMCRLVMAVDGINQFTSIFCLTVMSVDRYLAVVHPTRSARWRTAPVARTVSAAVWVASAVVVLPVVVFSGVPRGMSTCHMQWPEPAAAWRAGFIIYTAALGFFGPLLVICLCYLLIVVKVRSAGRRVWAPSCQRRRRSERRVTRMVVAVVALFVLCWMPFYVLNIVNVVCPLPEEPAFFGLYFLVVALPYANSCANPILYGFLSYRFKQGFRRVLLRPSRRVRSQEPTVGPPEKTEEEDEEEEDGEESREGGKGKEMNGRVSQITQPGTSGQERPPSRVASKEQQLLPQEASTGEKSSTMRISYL
method summary: Displacement of [125I]LTT-SRIF-28 from human sst3 receptor by autoradiography
pIC50: −log10 of the molar value. Positions of bridges follow the written chain, without caps; N, C: chain ends. Non-standard residues stand in square brackets, D forms with d. Residues, ends and D or L forms follow the SMILES beside them. Phe(4-CH2NHiPr) = CC(C)NCc1ccc(C[C@H](N)C(=O)O)cc1
Consider the following compounds and their measured pIC50 readings.
measurement label: pIC50

compound	target of assay	measurement label	censoring operator	reported result
CC(C)NCc1ccc(C[C@@H]2NC(=O)[C@@H](Cc3c[nH]c4ccccc34)NC(=O)[C@H](Cc3ccccc3)NC(=O)[C@@H](NC(=O)[C@H](N)Cc3ccccc3)CSSC[C@@H](C(=O)N[C@H](C(N)=O)[C@@H](C)O)NC(=O)[C@H](Cc3ccccc3)NC2=O)cc1 (H-[dF]CF[dW][Phe(4-CH2NHiPr)]FCT-NH2; disulfide 2-7)	Somatostatin receptor type 3 (Homo sapiens, UniProt P32745)	pIC50	=	7.14
CC(C)NCc1ccc(C[C@@H]2NC(=O)[C@@H](N(C)C(=O)c3ccc4ccccc4c3)NC(=O)[C@H](Cc3ccccc3)NC(=O)[C@@H](NC(=O)[C@H](N)Cc3ccc(O)cc3)CSSC[C@@H](C(=O)N[C@H](C(N)=O)[C@@H](C)O)NC(=O)[C@H](Cc3ccccc3)NC2=O)cc1	Somatostatin receptor type 3 (Homo sapiens, UniProt P32745)	pIC50	=	6.80
CC(C)NCc1ccc(C[C@@H]2NC(=O)[C@@H](N(C)C(=O)c3ccc4ccccc4c3)NC(=O)[C@H](Cc3ccccc3)NC(=O)[C@@H](N)CSSC[C@@H](C(N)=O)NC(=O)[C@H](Cc3ccc(O)cc3)NC2=O)cc1	Somatostatin receptor type 3 (Homo sapiens, UniProt P32745)	pIC50	=	6.60
CC(C)NCc1ccc(C[C@@H]2NC(=O)[C@@H](Cc3c[nH]c4ccccc34)NC(=O)[C@H](Cc3ccccc3)NC(=O)[C@@H](N)CSSC[C@@H](C(=O)N[C@H](C(N)=O)[C@@H](C)O)NC(=O)[C@H](Cc3ccccc3)NC2=O)cc1 (H-CF[dW][Phe(4-CH2NHiPr)]FCT-NH2; disulfide 1-6)	Somatostatin receptor type 3 (Homo sapiens, UniProt P32745)	pIC50	<	6.00
CC(C)NCc1ccc(C[C@@H]2NC(=O)[C@@H](Cc3c[nH]c4ccccc34)NC(=O)[C@H](Cc3ccccc3)NC(=O)[C@H](Cc3ccccc3)NC(=O)[C@@H](N)CSSC[C@@H](C(=O)O)NC(=O)[C@H](Cc3ccccc3)NC(=O)[C@H]([C@@H](C)O)NC2=O)cc1 (H-CFF[dW][Phe(4-CH2NHiPr)]TFC-OH; disulfide 1-8)	Somatostatin receptor type 3 (Homo sapiens, UniProt P32745)	pIC50	<	6.00
CC(C)NCc1ccc(C[C@@H]2NC(=O)[C@@H](Cc3c[nH]c4ccccc34)NC(=O)[C@H](Cc3ccccc3)NC(=O)[C@H](Cc3ccccc3)NC(=O)[C@H](CCCCN)NC(=O)[C@@H](N)CSSC[C@@H](C(=O)O)NC(=O)[C@H](CO)NC(=O)[C@H]([C@@H](C)O)NC(=O)[C@H](Cc3ccccc3)NC(=O)[C@H]([C@@H](C)O)NC2=O)cc1 (H-CKFF[dW][Phe(4-CH2NHiPr)]TFTSC-OH; disulfide 1-11)	Somatostatin receptor type 3 (Homo sapiens, UniProt P32745)	pIC50	=	6.82
CC(C)NCc1ccc(C[C@@H]2NC(=O)[C@H](N(C)C(=O)c3ccc4ccccc4c3)NC(=O)[C@H](Cc3ccccc3)NC(=O)[C@@H](N)CSSC[C@@H](C(=O)N[C@H](C(N)=O)[C@@H](C)O)NC(=O)[C@H](Cc3ccccc3)NC2=O)cc1	Somatostatin receptor type 3 (Homo sapiens, UniProt P32745)	pIC50	=	6.60

Origin of measurements: ChEMBL document CHEMBL1151856
